assay: Pharmacokinetic determination in SD rats; type: in vivo; conditions: rat, 5 mg/kg; female SD rats, PO (5 mpk), plasma; read-out: Area under the curve AUC0-t
AUC(0-t) values, listed per item
Field format: number, assumed ng·h/mL, no unit text.

These solved cases illustrate the format of a correct answer.
- MOLECULE: "CO/N=C1/C[C@@H](CO)N(C(=O)c2ccc(-c3cccc(C#N)c3C)cc2)C1"
  AUC(0-t) / ng·h/mL: 11400
- MOLECULE: "CO/N=C1/C[C@@H](CO)N(C(=O)c2ccc(-c3ccccc3C)cc2)C1 [Nolasiban, reference compound]"
  AUC(0-t) / ng·h/mL: 7700

Could you now look at the following molecule, please?
The molecule listed as CO/N=C1/C[C@@H](CO)N(C(=O)c2ccc(-c3cccc(C#N)c3Cl)cc2)C1 has a reported AUC(0-t) of 16000
